assay: Photo-response tests on the hydrogels (UV irradiation); type: physicochemical; set-up: key: time needed for initial collapse of the gel upon UV irradiation: —: no obvious change upon UV irradiation; settings: UV irradiation, high pressure mercury lamp (500 w)
ATTRIBUTE MEASURED: tinit(min): time needed for initial collapse of the gel upon UV irradiation

Some solved cases for reference:
- SUBSTANCE: "Azo-Ser-Phe-Ala"
  RESULT: "—^d"
- SUBSTANCE: "Azo-Glu-Phe-Ala"
  RESULT: "—^d"
- SUBSTANCE: "Azo-Gly-Phe-Ala"
  RESULT: "5 min"
- SUBSTANCE: "Azo-Glu-Tyr-Ala"
  RESULT: "—"
- SUBSTANCE: "Azo-Gln-Tyr-Ala"
  RESULT: "—"

Per the records, this substance ( Azo-Lys-Phe-Ala ) has tinit(min): time needed for initial collapse of the gel upon UV irradiation equal to 30 min

# tinit(min): time needed for initial collapse of the gel upon UV irradiation of Azo-Leu-Phe-Ala = 15 min

Entry Azo-Arg-Phe-Ala , tinit(min): time needed for initial collapse of the gel upon UV irradiation reported as 8 min

For Azo-Gln-Phe-Ala the substance record lists tinit(min): time needed for initial collapse of the gel upon UV irradiation as 3 min

* * *

test: Temperature for gel to solution phase transition; type: physicochemical; conditions: azobenzene substituted tripeptide hydrogels
Classify as follows. Reported T (° C.): temperature for gel to solution phase transition greater than or equal to 70 °C: true (1). Reported T (° C.): temperature for gel to solution phase transition below: false (0).

- SUBSTANCE: "Azo-Gly-Phe-Ala"
  CAT: "false (0)"
- SUBSTANCE: "Azo-Arg-Phe-Ala"
  CAT: "false (0)"
- SUBSTANCE: "Azo-Gln-Tyr-Ala"
  CAT: "true (1)"
- SUBSTANCE: "Azo-Glu-Phe-Ala"
  CAT: "true (1)"
- SUBSTANCE: "Azo-Lys-Phe-Ala"
  CAT: "false (0)"

Request: Decide: T (° C.): temperature for gel to solution phase transition of Azo-Gln-Phe-Ala >= 70 °C?
Result: false (0)

Request: Form field: T (° C.): temperature for gel to solution phase transition at least 70 °C? Entry: Azo-Ser-Phe-Ala
Result: false (0)

* * *

experiment: Hydrogelation conditions: lowest concentration to gel water at specific pH; assay type: physicochemical; details: azobenzene substituted tripeptides; pH at which the lowest gelling concentration applies
Below, each entry is listed alongside its reported pH (hydrogelation condition).
Please reply with the number alone, leaving off any unit.

// recorded pH (hydrogelation condition) for Azo-Gln-Phe-Ala : 7.8

* * *

assay: Hydrogelation conditions: lowest concentration to gel water at specific pH; type: physicochemical; conditions: azobenzene substituted tripeptides; pH at which the lowest gelling concentration applies
Classification field: enter Condition met for pH (hydrogelation condition) values not below 3, Condition not met for values below it.

Record excerpt, results attached:
- SUBSTANCE: "Azo-Gln-Tyr-Ala"
  CAT: "Condition met"
- SUBSTANCE: "Azo-Ser-Phe-Ala"
  CAT: "Condition met"

Request: State whether the measured pH (hydrogelation condition) reaches 3, counting equality as reaching it, for Azo-Glu-Phe-Ala
Result: Condition met

* * *

assay: Hydrogelation conditions: lowest concentration to gel water at specific pH; type: physicochemical; conditions: azobenzene substituted tripeptides; pH at which the lowest gelling concentration applies
ATTRIBUTE MEASURED: pH (hydrogelation condition)

Lab note: measured pH (hydrogelation condition) of Azo-Glu-Tyr-Ala was 3.0

Data point: Azo-Lys-Phe-Ala ; pH (hydrogelation condition) = 1.6

In plain terms, Azo-Arg-Phe-Ala has a documented pH (hydrogelation condition) of 1.6

Item: Azo-Leu-Phe-Ala | pH (hydrogelation condition): 8.6

The value of pH (hydrogelation condition) measured for the substance Azo-Gly-Phe-Ala turned out to be 7.5
